# test_system: dopamine D2 receptor (Homo sapiens, UniProt P14416)
# Sequence (P14416 whole entry): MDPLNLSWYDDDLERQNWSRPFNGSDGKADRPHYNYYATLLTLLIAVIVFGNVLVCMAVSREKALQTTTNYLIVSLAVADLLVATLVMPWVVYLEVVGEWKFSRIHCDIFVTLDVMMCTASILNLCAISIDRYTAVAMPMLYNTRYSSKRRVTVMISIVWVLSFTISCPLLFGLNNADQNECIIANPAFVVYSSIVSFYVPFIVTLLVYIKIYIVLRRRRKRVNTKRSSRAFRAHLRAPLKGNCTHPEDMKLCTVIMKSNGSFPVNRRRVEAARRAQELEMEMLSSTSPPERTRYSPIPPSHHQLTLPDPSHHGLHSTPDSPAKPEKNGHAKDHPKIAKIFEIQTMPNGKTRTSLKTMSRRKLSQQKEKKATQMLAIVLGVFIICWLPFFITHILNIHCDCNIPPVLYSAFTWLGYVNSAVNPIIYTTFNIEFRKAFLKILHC
# measurement_description: dopamine D2 receptor binding (inhibition of labeled ligand binding)
# condition_info: compound at 1micrMol
measure: D2 binding, percentage inhibition of labeled ligand binding (%)

[
  {
    "smiles_code": "Oc1cccc(N2CCN(Cc3cccc4c3oc3ccccc34)CC2)c1",
    "test_result": 75
  },
  {
    "smiles_code": "COc1ccccc1N1CCN(Cc2cccc3c2oc2ccccc23)CC1",
    "test_result": 96
  },
  {
    "smiles_code": "N#Cc1ccccc1N1CCN(Cc2cccc3c2oc2ccccc23)CC1",
    "test_result": 68.7
  },
  {
    "smiles_code": "c1ccc(C2CCN(Cc3cccc4c3oc3ccccc34)CC2)cc1",
    "test_result": 93.8
  }
]

* * *

# D3 binding, percentage inhibition of labeled ligand binding per entry
# test_system: dopamine D3 receptor (Homo sapiens)
# Sequence (P35462 whole entry): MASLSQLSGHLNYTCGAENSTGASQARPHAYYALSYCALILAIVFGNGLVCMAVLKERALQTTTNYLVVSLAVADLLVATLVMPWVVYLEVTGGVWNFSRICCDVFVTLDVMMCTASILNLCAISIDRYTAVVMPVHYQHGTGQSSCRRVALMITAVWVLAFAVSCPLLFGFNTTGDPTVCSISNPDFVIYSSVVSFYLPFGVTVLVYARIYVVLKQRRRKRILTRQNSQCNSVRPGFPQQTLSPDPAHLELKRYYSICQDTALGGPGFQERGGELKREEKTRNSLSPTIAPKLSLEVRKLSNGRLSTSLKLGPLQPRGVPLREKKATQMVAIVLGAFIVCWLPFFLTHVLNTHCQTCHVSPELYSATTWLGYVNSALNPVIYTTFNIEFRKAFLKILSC
# measurement_description: dopamine D3 receptor binding (inhibition of labeled ligand binding)
# condition_info: compound at 1micrMol
measure: D3 binding, percentage inhibition of labeled ligand binding (%)

[
  {
    "smiles_code": "c1ccc(C2CCN(Cc3cccc4c3oc3ccccc34)CC2)cc1",
    "test_system": "dopamine D3 receptor (Homo sapiens)",
    "unit_info": "%",
    "test_result": 44.5
  },
  {
    "smiles_code": "COc1ccccc1N1CCN(Cc2cccc3c2oc2ccccc23)CC1",
    "test_system": "dopamine D3 receptor (Homo sapiens)",
    "unit_info": "%",
    "test_result": 33.7
  },
  {
    "smiles_code": "Oc1cccc(N2CCN(Cc3cccc4c3oc3ccccc34)CC2)c1",
    "test_system": "dopamine D3 receptor (Homo sapiens)",
    "unit_info": "%",
    "test_result": 78.2
  },
  {
    "smiles_code": "N#Cc1ccccc1N1CCN(Cc2cccc3c2oc2ccccc23)CC1",
    "test_system": "dopamine D3 receptor (Homo sapiens)",
    "unit_info": "%",
    "test_result": 63.2
  }
]

* * *

# 5-HT1A binding, percentage inhibition of labeled ligand binding per entry
# test_system: 5-HT1A receptor (Homo sapiens, UniProt P08908)
# Sequence (P08908 whole entry): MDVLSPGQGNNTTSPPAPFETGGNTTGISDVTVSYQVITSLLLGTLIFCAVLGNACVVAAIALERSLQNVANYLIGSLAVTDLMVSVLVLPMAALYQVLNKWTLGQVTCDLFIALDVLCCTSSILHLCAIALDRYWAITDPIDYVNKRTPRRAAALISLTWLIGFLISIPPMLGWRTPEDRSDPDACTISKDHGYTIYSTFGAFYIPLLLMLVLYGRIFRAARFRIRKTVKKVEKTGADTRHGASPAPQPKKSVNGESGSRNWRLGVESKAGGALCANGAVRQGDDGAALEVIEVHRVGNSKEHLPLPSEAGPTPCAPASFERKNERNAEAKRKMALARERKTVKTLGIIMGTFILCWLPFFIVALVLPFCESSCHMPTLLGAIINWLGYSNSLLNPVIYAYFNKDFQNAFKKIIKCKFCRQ
# measurement_description: 5-HT1A receptor binding (inhibition of labeled ligand binding)
# condition_info: compound at 1micrMol
# Description: The compounds of the invention may be used in the treatment of CNS disorders in mammals, especially human. Of particular interest is the use of the compounds of the invention as anti-dyskinetic agents. Dyskinesia is a serious side effect associated with L-DOPA treatment of patients with Parkinson's disease. […]
measure: 5-HT1A binding, percentage inhibition of labeled ligand binding (%)

[
  {
    "compound": "COc1ccccc1N1CCN(Cc2cccc3c2oc2ccccc23)CC1 [Example L-107]",
    "unit_info": "%",
    "test_result": 86.7
  },
  {
    "compound": "Oc1cccc(N2CCN(Cc3cccc4c3oc3ccccc34)CC2)c1 [Example L-33]",
    "unit_info": "%",
    "test_result": 43.4
  },
  {
    "compound": "c1ccc(C2CCN(Cc3cccc4c3oc3ccccc34)CC2)cc1 [Example L-105]",
    "unit_info": "%",
    "test_result": 42.2
  },
  {
    "compound": "N#Cc1ccccc1N1CCN(Cc2cccc3c2oc2ccccc23)CC1 [Example L-109]",
    "unit_info": "%",
    "test_result": 73.5
  }
]
